test: AUC (0 to infinity) in Beagle dog at 1 mg/kg, po; format: ADME, organism-based, Canis lupus familiaris; set-up: time infinity, dose 1 mg/kg, route oral; details: plasma
MEASUREMENT NAME: AUC(0-inf) (ng·h/mL)
Use ng·h/mL as the unit, but write only the number.

Problem: Value lookup for AUC(0-inf); key = Cc1cc(C)c(NC(=O)Nc2cc3ccccc3cc2C(=O)NC2(C(=O)O)CCCCCCC2)c(C)c1
Solution: 620

----------
assay: AUC (0 to infinity) in Sprague-Dawley rat at 1 mg/kg, po; format: ADME, organism-based; set-up: time infinity, dose 1 mg/kg, route oral; conditions: plasma
Entries and their AUC(0-inf) values follow.
The response must be a number in ng·h/mL with no trailing unit.

{"CHEMICAL STRUCTURE": "Cc1cc(C)c(NC(=O)Nc2cc3ccccc3cc2C(=O)N[C@](C)(C(=O)O)C2CCCCC2)c(C)c1", "MEASUREMENT NAME": "AUC(0-inf)", "VALUE MEASURED": 1720}

Let's switch to this compound now.
Problem: Report AUC(0-inf) for Cc1cc(C)c(NC(=O)Nc2cc3ccccc3cc2C(=O)NC2(C(=O)O)CCCCCCC2)c(C)c1 please.
Solution: 4380

----------
experiment: Volume of distribution at steady state in Beagle dog at 5 mg/kg, po or 1 mg/kg, iv; format: ADME, organism-based, Canis lupus familiaris; settings: in vivo, read-out: Vdss
MEASUREMENT NAME: Vd (L/kg)
Expressed in L/kg, but write only the number.

Problem: Vd for Cc1cc(C)c(NC(=O)Nc2cc3ccccc3cc2C(=O)NC2(C(=O)O)CCCCCCC2)c(C)c1 ?
Solution: 0.5

----------
assay: Clearance in Sprague-Dawley rat at 10 mg/kg, po or 2.5 mg/kg, iv; format: ADME, organism-based; details: in vivo
MEASUREMENT NAME: clearance (mL/min/kg)
Please respond with the number in mL/min/kg and leave the unit unwritten.

{"CHEMICAL STRUCTURE": "Cc1cc(C)c(NC(=O)Nc2cc3ccccc3cc2C(=O)N[C@](C)(C(=O)O)C2CCCCC2)c(C)c1", "VALUE MEASURED": 7.5}

Now for a further compound.
Problem: Could you share which clearance value was measured for Cc1cc(C)c(NC(=O)Nc2cc3ccccc3cc2C(=O)NC2(C(=O)O)CCCCCCC2)c(C)c1 ?
Solution: 1.1
